experiment: qHTS for Inhibitors of Cell Surface uPA Generation: Confirmatory Assay for Cherry-picked Compounds; conditions: cell surface uPA activity generation, qHTS confirmation; series mostly up to 115 µM
Inconclusive results are not listed. Active and inactive are the calls of the source. Calls follow the shape of the dose curve; as a rule, active = well fitted activation curve with a large enough effect; inconclusive = small, poorly fitted or top-dose-only effect; inactive = flat fitted curve, though single readings scatter.
metric_name: outcome

compound=Cc1cc(C)n(-c2cc(C(=O)O)cc(C(=O)O)c2)n1 metric_name=outcome result=inactive
compound=CCO[C@H]1OC(C(=O)N2CCCCCCC2)=C[C@@H](c2ccc(C(F)(F)F)cc2)[C@@H]1CCCO metric_name=outcome result=inactive
compound=Cc1ccc(S(=O)(=O)N2CCOCC2)cc1NC(=O)CSc1nc(N)cc(N)n1 metric_name=outcome result=inactive
compound=C=CCOC(=O)C1=C[C@H](c2ccc(C(F)(F)F)cc2)[C@@H](CCCO)[C@H](OCC)O1 metric_name=outcome result=inactive
compound=C=CCOC(=O)C1=C[C@@H](c2coc3ccccc3c2=O)C[C@@H](OCc2ccc(CO)cc2)O1 metric_name=outcome result=inactive

Summary for this compound, CCCCn1c(N)c(N(Cc2ccccc2OC)C(=O)COc2ccc(C)cc2)c(=O)[nH]c1=O : outcome is inactive

Summary for this compound, COc1ccccc1-c1ccc(SCC(=O)NCCc2ccccc2)nn1 : outcome is inactive

Summary for this compound, COc1cc(OC)cc(C(=O)NC(C(=O)Nc2ccc3c(c2)CCC3)C(C)C)c1 (configuration not stated) : outcome is inactive

Summary for this compound, Cc1ccccc1C(=O)NCC(=O)Nc1ccc(C)c(S(=O)(=O)N2CCCCCC2)c1 : outcome is inactive

Summary for this compound, CCOc1cc(/C=N/Nc2cc(C)nc3ccc(C)cc23)ccc1O : outcome is inactive

Reference source: PubChem BioAssay AID720519
